Parameter 'readout' = MIC; parameter 'system' = E. faecalis ATCC 29212.
PROPERTY MEASURED: MIC (µg/mL)

> print(dat)
                                   molecule  property.measured  units.label  measured.result
1  COc1ccc(-n2cc(COc3ccc(-c4nc5cc(C6=NCCN6)ccc5[nH]4)cc3)nn2)cc1.Cl.Cl [Compound 9b]                MIC        µg/mL              256
2  Cl.Cl.N=C(N)c1ccc2[nH]c(-c3ccc(OCc4cn(CSc5ccccc5)nn4)cc3)nc2c1 [Compound 7e]                MIC        µg/mL              128
3  CC(C)NC(=N)c1ccc2[nH]c(-c3ccc(OCc4cn(-c5ccccc5Cl)nn4)cc3)nc2c1.Cl.Cl [Compound 8c]                MIC        µg/mL               64
4  c1ccc(-n2cc(COc3ccc(-c4nc5cc(C6=NCCN6)ccc5[nH]4)cc3)nn2)cc1 [Compound 9a]                MIC        µg/mL              128
5  Cl.Cl.N=C(N)c1ccc2[nH]c(-c3ccc(OCc4cn(-c5ccccc5Cl)nn4)cc3)nc2c1 [Compound 7c]                MIC        µg/mL               64
6  N=C(N)c1ccc2[nH]c(-c3ccc(OCc4cn(-c5ccccc5)nn4)cc3)nc2c1 [Compound 7a]                MIC        µg/mL               64
